- System: Enterococcus faecalis Enfa_29212
- Assay explanation: MIC, broth microdilution (NCCLS)
- Format: cell-based
- Setup conditions: Table 5, Strain ID C (Table 4): E. faecalis Enfa_29212; in µg/mL (unit assumed)
# Lookup of reported MIC keyed by entry
Answer as a number with no unit attached.

{"Molecule": "CC[C@H]1OC(=O)[C@H](C)C(=O)[C@H](C)[C@@H](OC2O[C@H](C)C[C@H](N(C)C)[C@H]2O)[C@@](C)(OC)C[C@@H](C)C(=O)[C@H](C)[C@@H]2[C@@H]1OC(=O)N2CCCn1cnc2cccnc21 (stereo partly shown)", "Recorded number": 0.78}
{"Molecule": "CC[C@H]1OC(=O)[C@H](C)C(=O)[C@H](C)[C@@H](OC2O[C@H](C)C[C@H](N(C)C)[C@H]2O)[C@@](C)(OC)C[C@@H](C)C2=NCCN3C(=O)O[C@H]1[C@H]3[C@H]2C (stereo partly shown)", "Recorded number": 0.4}
{"Molecule": "CC[C@H]1OC(=O)[C@H](C)C(=O)[C@H](C)[C@@H](OC2O[C@H](C)C[C@H](N(C)C)[C@H]2O)[C@@](C)(OC)C[C@@H](C)C(=O)[C@H](C)[C@H]2N(CCCCn3cnc4ccccc43)C(=O)O[C@]12CC (stereo partly shown)", "Recorded number": 0.1}

Continue with the molecule presented below.
Measured MIC of CC[C@H]1OC(=O)[C@H](C)C(=O)[C@H](C)[C@@H](OC2O[C@H](C)C[C@H](N(C)C)[C@H]2O)[C@@](C)(OC)C[C@@H](C)C(=O)[C@H](C)[C@@H]2[C@@H]1OC(=O)N2CCCn1cnc(-c2ccccc2)c1 (stereo partly shown) : 0.4
